Examples of compounds with documented Percent ATP Remaining follow.
Tested on: ATPase activity endogenous to L929 cell lysate
Assay: Detergent inhibition of ATPase endogenous to L929 cell lysate (ATP remaining by luciferase luminescence, 22° C.)
Format: biochemical
Conditions: 1.0% detergent, 222 min
Express it in %; write the number only.

Known Percent ATP Remaining results, listed for orientation:
>  <compound>
C[C@H](CCC(=O)NCCC[N+](C)(C)CCCS(=O)(=O)[O-])[C@H]1CC[C@H]2[C@@H]3[C@H](O)C[C@@H]4C[C@H](O)CC[C@]4(C)[C@H]3C[C@H](O)[C@]12C

>  <Percent ATP Remaining (%)>
18.3

$$$$
>  <compound>
C[C@H](CCC(=O)NCCC[N+](C)(C)CC(O)CS(=O)(=O)[O-])[C@H]1CC[C@H]2[C@@H]3[C@H](O)C[C@@H]4C[C@H](O)CC[C@]4(C)[C@H]3C[C@H](O)[C@]12C (some centres unmarked)

>  <Percent ATP Remaining (%)>
18.6

$$$$
>  <compound>
CCCCCCCCCCCC[N+](C)(C)C.[Br-] [DTAB, dodecyltrimethylammonium bromide]

>  <Percent ATP Remaining (%)>
83.8

$$$$
>  <compound>
CCCCCCCCCCCC[N+](C)(C)CCCS(=O)(=O)[O-]

>  <Percent ATP Remaining (%)>
39.1

$$$$

Turning now to a further record.
Any idea what its Percent ATP Remaining is? The compound is C[C@H](CCC(=O)N(CCCNC(=O)[C@H](O)[C@@H](O)[C@H](O)[C@H](O)CO)CCCNC(=O)[C@H](O)[C@@H](O)[C@H](O)[C@H](O)CO)[C@H]1CC[C@H]2[C@@H]3[C@H](O)C[C@@H]4C[C@H](O)CC[C@]4(C)[C@H]3C[C@H](O)[C@]12C [BIGCHAP, N,N-bis(3-D-Gluconamidopropyl)cholamide] 18.1

---

System: ATPase activity endogenous to L929 cell lysate
Assay: Detergent inhibition of ATPase endogenous to L929 cell lysate (ATP remaining by luciferase luminescence, 22° C.)
Assay type: biochemical
Details: 0.05% detergent, 169 min
Binary classification by Average Relative Light Unit Values, with 1000 rlu as an inclusive lower bound for condition met; all other cases are condition not met.

Form field: Average Relative Light Unit Values at least 1000 rlu? Entry: C[C@H](CCC(=O)N(CCCNC(=O)[C@H](O)[C@@H](O)[C@H](O)[C@H](O)CO)CCCNC(=O)[C@H](O)[C@@H](O)[C@H](O)[C@H](O)CO)[C@H]1CC[C@H]2[C@@H]3[C@H](O)C[C@@H]4C[C@H](O)CC[C@]4(C)[C@H]3C[C@H](O)[C@]12C [BIGCHAP, N,N-bis(3-D-Gluconamidopropyl)cholamide] condition met

Entry CCCCCCCCCCCCOS(=O)(=O)[O-].[Na+] [SDS, Sodium dodecyl sulfate] : is its Average Relative Light Unit Values no less than 1000 rlu? condition not met

I'd appreciate it if you could say whether CCCCCCCCCCCC[N+](C)(C)Cc1ccccc1.[Br-] [BDDABr, Benzyldimethyldodecylammonium bromide] has Average Relative Light Unit Values at least equal to 1000 rlu. condition met

---

Property: Relative ATPase Activity, slope det/slope lysate; scope: individual compounds
Test system: ATPase activity endogenous to L929 cell lysate
Assay: Detergent inhibition of ATPase endogenous to L929 cell lysate (ATP remaining by luciferase luminescence, 22° C.)
Assay type: biochemical
Set-up: key: slope with detergent / slope without; ≥1.0 = 100% activity, 0.5 = 50%
Conditions: 0.10 percent detergent
Please respond with just the number, no unit label.

>  <compound>
CCCCCCCCCCCC[N+](C)(C)Cc1ccccc1.[Br-] [BDDABr, Benzyldimethyldodecylammonium bromide]

>  <reported-value>
0.414

$$$$
>  <compound>
C[C@H](CCC(=O)NCCC[N+](C)(C)CC(O)CS(=O)(=O)[O-])[C@H]1CC[C@H]2[C@@H]3[C@H](O)C[C@@H]4C[C@H](O)CC[C@]4(C)[C@H]3C[C@H](O)[C@]12C (some centres unmarked)

>  <reported-value>
1.030

$$$$
>  <compound>
C[C@H](CCC(=O)N(CCCNC(=O)[C@H](O)[C@@H](O)[C@H](O)[C@H](O)CO)CCCNC(=O)[C@H](O)[C@@H](O)[C@H](O)[C@H](O)CO)[C@H]1CC[C@H]2[C@@H]3[C@H](O)C[C@@H]4C[C@H](O)CC[C@]4(C)[C@H]3C[C@H](O)[C@]12C [BIGCHAP, N,N-bis(3-D-Gluconamidopropyl)cholamide]

>  <reported-value>
0.968

$$$$
>  <compound>
CCCCCCCCCCCCCCCC[N+](C)(C)C.[Br-] [CTAB, Cetyltrimethylammonium bromide]

>  <reported-value>
0.507

$$$$

Moving on to another compound below.
What value of measured Relative ATPase Activity, slope det/slope lysate is listed for C[C@H](CCC(=O)[O-])[C@H]1CC[C@H]2[C@@H]3CC[C@@H]4C[C@H](O)CC[C@]4(C)[C@H]3C[C@H](O)[C@]12C.[Na+] [Deoxycholate, sodium deoxycholate] ? 0.684

These entries and their values trace back to patent US20030104507A1.
